Values compiled from the supplement of paper PMC9170038.

System: MS2 coat protein
Test: apparent KD of MS2 coat protein; designed switch direction (-1 OFF switch, 1 ON switch): -1; higher = weaker reporter binding
Settings: input ligand: FMN 200 uM
endpoint-label: apparent KD of MS2 coat protein (nM)
A number alone suffices; assume nM.

GCAGAAUACUAGGAUAUGUUGGUCGGAGGGCCAACAGAAGGAGUUACAUGAGGAUCACCCAUGUUCCCAAUGGG [Eternabot (Original) Solution 49] (Eterna round: R97, puzzle: Exclusion 6): 66.1

Give its apparent KD of MS2 coat protein value. Item: UUCGUGCAGCUUUGCUGUACGAGUACAUGAGGAUCACCCAUGUAGGAUAUGGUACGCUUUGCGUGCUAGAAGGAUAUGUGUAGG [JL EXNG3 1.37] (Eterna round: R96, puzzle: Exclusion NG 3)
55.5

Give its apparent KD of MS2 coat protein value. Item: ACAUGAGGAUCACCCAUGUCUGGCUGGUCCGCUCCGGCUGUUGAGGAUAUAGCUCGGUGUCCGCGCUAGAAGGUGAGGGCUGGC [Aenatbe mod 34] (Eterna round: R96, puzzle: Exclusion NG 3)
32.4

Give its apparent KD of MS2 coat protein value. Item: AGUUGGCGAGGAUAUACAUGAGGAUCACCCAUGUGGGAGAUACUAGUGAGGUCGAUUAGUAGAAGGCGCUGACA [Mat X3R4 m8] (Eterna round: R97, puzzle: Exclusion 3)
566

Give its apparent KD of MS2 coat protein value. Item: GGAAACCUACCGCGACAUGAGGAUCACCCAUGUGAUUGGUUUUAGGAUAUCUGGAGAAUCCAGACAGAGAAGGAGGGCCGUCGC [Eternabot solution 38] (Eterna round: R96, puzzle: Exclusion NG 3)
77.5

----------
System: MS2 coat protein
Assay: apparent KD of MS2 coat protein; designed switch direction (-1 OFF switch, 1 ON switch): -1; higher = weaker reporter binding
Conditions: input ligand: none
# apparent KD of MS2 coat protein binned as label 0 = under 20 nM, label 1 = from 20 nM up to 100 nM, label 2 = 100 nM and over

Example entries begin here.
UGCGGGCUUCUGAGACCUCACAUGAGGAUCACCCAUGUGCUUGUCUUGUAAGUGGGUAGGUCGUUGGCUGACUCACA (Eterna round: R97, puzzle: Sensor, turn-off variant 1): label 0
CCCAGACUAGGAUAUACAAGCCGUGGCGAGGUGGGCCUGGGACAUGAGGAUCACCCAUGUAGAAGGAGUAGGUC [Eternabot (Original) Solution 31] (Eterna round: R97, puzzle: Exclusion 2): label 2
CUAGUAUAUCAGGAUAUGAUAUUGUGUAGUAUAUCAGAAGGGAUGACAUGAGGAUCACCCAUGUUAUGGGAUGA [JR_Ex6_Sub048] (Eterna round: R97, puzzle: Exclusion 6): label 2
GCACAGGCAGGAUAUACAUGAGGAUCACCCAUGUGAUCCCUUAAGUACAAAAGUACUAGUAGAAGGGCCUGUGC [Omei Ex3 Model Bachelor's Dilema v47] (Eterna round: R97, puzzle: Exclusion 3): label 2
CCUCUUGGGCAAGGAUAUCCUGCGCGGUUCCGGCUCGUGUCUGUCACAUGAGGAUCACCCAUGUGGGAGAAGGUGCCUGCGGUC [Design 79] (Eterna round: R96, puzzle: Exclusion NG 2): label 0
CCGGGCGCAGGAUAUACGUGGCCCAAAUAAAUAAUAACCACACAUGAGGAUCACCCAUGUAGAAGGGCGCCCGG [-26.59, -25.61 kcal, A 32%] (Eterna round: R97, puzzle: Exclusion 2): label 1
UACAUGAGGAUCACCCAUGUUUUGUCGUGUAUGGUACCCAUCUAGGAUAUCGUGUUAUUGGACCACGAGAAGGAGAGUAUCAAU [Excl-NG3-LRO01] (Eterna round: R96, puzzle: Exclusion NG 3): label 1
GCGCCAUCGUGAGAUGGCGUACCGACAUGAGGAUCACCCAUGUAGGAUAUCGAUUGCUUUGCAGUCGAGAAGGGCGUGAUAAGU [JL ENG3 3.74] (Eterna round: R96, puzzle: Exclusion NG 3): label 1

Here is another sequence to look at.
Which class is correct for the following sequence? AUUAAACAUGUAGGAUAUGCGUAGCAAAGCUAUGCAGAAGGACAUGAGGAUCACCCAUGUAAAAGCGUCUGAGUACAGAUGCAA [Mat - Exclusion NG 1 - Mod of JL - D88] (Eterna round: R96, puzzle: Exclusion NG 1)
label 1
